# Tested on: patient-derived GBM cell line 371
# Test details: Gliomasphere Cell Number Assay
# Assay type: cell-based
# Run parameters: cell line 371, Recurrent, MGMT status −; 50% cell numbers vs DMSO control, Day 2 to Day 9; read-out: IC50 Cell Survival
pIC50: −log10 of the molar value.
Parameter measured: pIC50

>  <Molecule>
CCN1C(=O)CNc2ncc(-c3ccc(-c4nc[nH]n4)nc3C)nc21 [Compound 1]

>  <Test value>
6.43

$$$$

====

# Tested on: patient-derived GBM cell line 248
# Test details: Gliomasphere Cell Number Assay
# Type: cell-based
# Run parameters: cell line 248, Recurrent, MGMT status Slightly elevated; 50% cell numbers vs DMSO control, Day 2 to Day 9; read-out: IC50 Cell Survival
Parameter measured: IC50 (µM)

>  <Compound>
CCN1C(=O)CNc2ncc(-c3ccc(-c4nc[nH]n4)nc3C)nc21 [Compound 1]

>  <Endpoint unit>
µM

>  <Test value>
0.441

$$$$
